Sourced from patent US8957093B2

target_or_system: GST-PPARG-LBD (Homo sapiens (Human))
Sequence (P37231 238-503): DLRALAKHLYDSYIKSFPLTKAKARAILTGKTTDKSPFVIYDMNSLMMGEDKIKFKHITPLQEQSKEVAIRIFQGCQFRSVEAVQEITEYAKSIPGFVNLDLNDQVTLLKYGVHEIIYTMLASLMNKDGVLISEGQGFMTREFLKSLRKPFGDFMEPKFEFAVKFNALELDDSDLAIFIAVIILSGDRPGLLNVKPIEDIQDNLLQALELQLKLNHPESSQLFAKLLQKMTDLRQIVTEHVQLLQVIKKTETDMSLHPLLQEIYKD
run_description: Lanthascreen PPARG competitive binding assay (Invitrogen, TR-FRET)
conditions_used: Lanthascreen competitive binding; NA = not active; inc = incomplete curve; read-out: IC50 (nM) Lantha
Protocol: Lanthascreen PPARG Competitive Binding Assay (Invitrogen) The assay was performed according to manufacturer protocol. […] Experiment was performed in triplicate, and incubated for 2 hours in the dark prior to assay read in Perkin Elmer ViewLux ultra HTS microplate reader. FRET signal was measured by excitation at 340 nm and emission at 520 nm for fluorescein and 490 nm for terbium. Fold change over DMSO was calculated using GraphPad Prism Software (La Jolla, Calif.) by calculating 520 nm/490 nm ratio. […]
# IC50 annotations
Give the number; nM is assumed, so skip it.

smiles_code	IC50, nM
Cc1c(C)n(Cc2ccc(-c3ccccc3C(=O)O)cc2)c2ccc(C(=O)N[C@@H](C)c3c(F)ccc(F)c3F)cc12	17
Cc1c(C)n(Cc2ccc(-c3ccccc3C(=O)O)cc2)c2ccc(C(=O)N[C@@H](C)c3cccc4ccccc34)cc12	256
Cc1c(C)n(Cc2ccc(-c3ccccc3C(=O)O)cc2)c2ccc(C(=O)NCc3cccc(N)c3)cc12	13

Attention now turns to another entry.
Any idea what its IC50 is? The compound is Cc1c(C)n(Cc2ccc(-c3ccccc3C(=O)O)cc2)c2ccc(C(=O)N[C@@H](C)c3ccc4c(c3)CCO4)cc12
223

* * *

target_or_system: Gal-4-PPAR (human PPAR LBD fused to GAL4 DNA-binding domain) (Homo sapiens (Human), UniProt P37231)
run_description: GAL4-PPARG LBD / UAS-luciferase transactivation assay in HEK 293T cells
Assay type: cell-based
conditions_used: GAL4 transactivation, HEK 293T cells; NA = not active; read-out: EC50 (nM) GAL4
// values below are reported log10(EC50)
A difference of one corresponds to tenfold EC50; all values are log10 with EC50 in nM.

compound	quantity_name	quantitative_result
Cc1c(C)n(Cc2ccc(-c3ccccc3C(=O)O)cc2)c2ccc(C(=O)N[C@@H](C)c3cccc(C(F)(F)F)c3Cl)cc12	log10(EC50)	2.85
Cc1c(C)n(Cc2ccc(-c3ccccc3C(=O)O)cc2)c2ccc(C(=O)N[C@@H](C)C3COc4ccccc4O3)cc12 (some centres unmarked)	log10(EC50)	3.37
Cc1c(C)n(Cc2ccc(-c3ccccc3C(=O)O)cc2)c2ccc(C(=O)NCc3ccc(Cl)cc3C(F)(F)F)cc12	log10(EC50)	2.71
Cc1c(C)n(Cc2ccc(-c3ccccc3C(=O)O)cc2)c2ccc(C(=O)N[C@@H](C)c3ccc(C(F)(F)F)cc3C(F)(F)F)cc12	log10(EC50)	3.11
Cc1c(C)n(Cc2ccc(-c3ccccc3C(=O)O)cc2)c2ccc(C(=O)N[C@@H](C)c3ccc(C(F)(F)F)c(F)c3)cc12	log10(EC50)	3.03

# log10(EC50) lookup, item Cc1c(C)n(Cc2ccc(-c3ccccc3C(=O)O)cc2)c2ccc(C(=O)N[C@@H](C)c3c(F)cncc3F)cc12
2.95

* * *

target_or_system: PPARG (murine PPARg2 or full-length human PPARG, 3xPPRE-luciferase reporter) (Homo sapiens, UniProt P37231)
Sequence (P37231 whole entry, looked up): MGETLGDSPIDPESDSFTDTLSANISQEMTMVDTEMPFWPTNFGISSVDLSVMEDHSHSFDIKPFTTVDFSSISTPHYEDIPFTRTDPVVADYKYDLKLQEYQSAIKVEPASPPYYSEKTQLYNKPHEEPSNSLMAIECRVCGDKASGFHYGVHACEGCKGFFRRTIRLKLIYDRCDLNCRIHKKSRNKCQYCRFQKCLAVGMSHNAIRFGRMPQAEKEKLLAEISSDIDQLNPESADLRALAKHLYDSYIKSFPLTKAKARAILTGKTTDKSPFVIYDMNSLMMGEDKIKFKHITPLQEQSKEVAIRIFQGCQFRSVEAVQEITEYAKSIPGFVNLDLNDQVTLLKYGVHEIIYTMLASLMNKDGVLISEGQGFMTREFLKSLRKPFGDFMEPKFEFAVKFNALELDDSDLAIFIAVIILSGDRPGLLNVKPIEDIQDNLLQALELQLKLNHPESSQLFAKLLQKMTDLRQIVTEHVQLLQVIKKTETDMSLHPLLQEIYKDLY
run_description: Cell-based PPRE-luciferase transactivation assay in COS-1 cells
conditions_used: PPRE-luciferase, COS-1 cells; NA = not active; read-out: EC50 (nM) PPRE
quantity_name: EC50 (nM)
Form entry: value (nM) — number only.

Can you share its EC50? I mean this compound: Cc1c(C)n(Cc2ccc(-c3ccccc3C(=O)O)cc2)c2ccc(C(=O)N[C@H]3COc4ccccc4C3)cc12
80
